Cell viability (%) (@ 3 uM) by entry:
Test system: TDP-43 BiFC cells
Assay: Cell viability (stained nuclei count) in TDP-43-BiFC cells
Assay type: cell-based
Details: Forskolin-only group = 100%

{"columns": ["COMPOUND", "UNIT_STRING", "Cell viability (%) (@ 3 uM)"],
 "data": [
  ["Cn1c(N2CCOCC2)nc2cc(NN=C(C#N)C#N)ccc21", "%", 98.1],
  ["N#CC(C#N)=NNc1cc2oc(N3CCOCC3)nc2cc1Cl", "%", 97.0],
  ["CC1CN(c2nc3ccc(NN=C(C#N)C#N)cc3s2)CCO1 (centres unmarked)", "%", 73.0],
  ["CC1COCCN1c1nc2ccc(NN=C(C#N)C#N)cc2s1 (centres unmarked)", "%", 63.6],
  ["CC(C)N1CCN(c2nc3ccc(NN=C(C#N)C#N)cc3o2)CC1", "%", 113.4],
  ["Cc1ccc(-c2nc3ccc(NN=C(C#N)C#N)cc3s2)cn1 [Comparative compound 6, reference compound]", "%", 60.8],
  ["N#CC(C#N)=NNc1ccc2nc(N3CC4CCC(C3)O4)sc2c1", "%", 81.1],
  ["CC(C)(C)OC(=O)N1CCN(c2nc3ccc(NN=C(C#N)C#N)cc3s2)CC1", "%", 130.7],
  ["CC(=O)N(N=C(C#N)C#N)c1ccc2nc(N3CCOCC3)sc2c1", "%", 61.3],
  ["N#CC(C#N)=NNc1ccc2nc(N3CCNCC3)sc2c1", "%", 83.1],
  ["N#CC(C#N)=NNc1ccc2sc(N3CCOCC3)nc2c1", "%", 87.5],
  ["Cn1c(N2CCOCC2)nc2ccc(NN=C(C#N)C#N)cc21", "%", 109.2],
  ["C[C@@H]1CN(c2nc3ccc(NN=C(C#N)C#N)cc3s2)C[C@H](C)N1C(=O)OC(C)(C)C", "%", 96.2],
  ["N#CC(C#N)=NNc1ccc2nc(N3CC[C@H](F)C3)oc2c1", "%", 89.0],
  ["N#CC(C#N)=NNc1ccc2nc(N3CCCC(F)C3)oc2c1 (centres unmarked)", "%", 85.0],
  ["CC(=O)N1CCN(c2nc3ccc(NN=C(C#N)C#N)cc3s2)CC1", "%", 83.1],
  ["N#CC(C#N)=NNc1ccc2nc(N3CCC[C@H](F)C3)oc2c1", "%", 62.4],
  ["N#CC(C#N)=NNc1ccc2nc(N3CCOCC3)oc2c1", "%", 104.2],
  ["N#CC(C#N)=NNc1ccc2nc(N3C4CCC3COC4)oc2c1", "%", 75.4],
  ["CC1CN(C(=O)Nc2nc3ccc(NN=C(C#N)C#N)cc3s2)CC(C)O1 (centres unmarked)", "%", 117.7],
  ["CN1CCN(c2nc3ccc(NN=C(C#N)C#N)cc3s2)CC1", "%", 83.0],
  ["N#CC(C#N)=NNc1ccc2nc(N3CC4CCC(C3)O4)oc2c1", "%", 76.1],
  ["Cc1nc2ccc(NN=C(C#N)C#N)cc2s1 [Comparative compound 1, reference compound]", "%", 79.0],
  ["Cn1c(N2C3CCC2COC3)nc2ccc(NN=C(C#N)C#N)cc21", "%", 59.5],
  ["CC(C)N1CCN(c2nc3ccc(NN=C(C#N)C#N)cc3s2)CC1", "%", 104.8],
  ["CC1CN(c2nc3ccc(NN=C(C#N)C#N)cc3s2)CC(C)O1 (centres unmarked)", "%", 83.8],
  ["N#CC(C#N)=NNc1ccc2nc(N3CCOCC3)sc2c1", "%", 87.5],
  ["CC(=O)N1CCN(c2nc3ccc(NN=C(C#N)C#N)cc3o2)CC1", "%", 82.7],
  ["N#CC(C#N)=NNc1ccc2nc(N3CCNCC3)oc2c1", "%", 76.7],
  ["CC1COCCN1c1nc2ccc(NN=C(C#N)C#N)cc2o1 (centres unmarked)", "%", 97.8],
  ["Cn1c(N2C3CCC2COC3)nc2cc(NN=C(C#N)C#N)ccc21", "%", 67.4],
  ["CC1CN(c2nc3ccc(NN=C(C#N)C#N)cc3o2)CCO1 (centres unmarked)", "%", 105.2],
  ["N#CC(C#N)=NNc1ccc2nc(NC(=O)N3CCOCC3)sc2c1", "%", 111.9],
  ["N#CC(C#N)=NNc1ccc2nc(NC(=O)N3CC4CCC(C3)O4)sc2c1", "%", 95.6],
  ["N#CC(C#N)=NNc1ccc2nc(N3C4CCC3COC4)sc2c1", "%", 80.9],
  ["CCn1c(N2CCOCC2)nc2ccc(NN=C(C#N)C#N)cc21", "%", 59.7],
  ["N#CC(C#N)=NNc1ccc2oc(N3CCOCC3)nc2c1", "%", 102.3],
  ["CC1CN(c2nc3ccc(NN=C(C#N)C#N)cc3o2)CC(C)O1 (centres unmarked)", "%", 102.1]
]}

* * *

Experiment: Liver microsomal stability, human
Assay type: in vitro ADME
Conditions: 1 µM compound; 0.5 mg/mL microsomes; NADPH; 30 minutes at 37°C
PARAMETER: Human microsomes (% remaining)

{"columns": ["COMPOUND", "UNIT_STRING", "MEASUREMENT_QUALIFIER", "QUANTITATIVE_READOUT"],
 "data": [
  ["CC(=O)N1CCN(c2nc3ccc(NN=C(C#N)C#N)cc3o2)CC1", "% remaining", "=", 99.9],
  ["N#CC(C#N)=NNc1ccc2nc(N3CC4CCC(C3)O4)sc2c1", "% remaining", "=", 85.6],
  ["CN1CCN(c2nc3ccc(NN=C(C#N)C#N)cc3s2)CC1", "% remaining", "=", 83.9],
  ["N#CC(C#N)=NNc1ccc2nc(NC(=O)N3CCOCC3)sc2c1", "% remaining", "=", 87.6],
  ["CC(=O)N1CCN(c2nc3ccc(NN=C(C#N)C#N)cc3s2)CC1", "% remaining", ">", 100],
  ["N#CC(C#N)=NNc1ccc2nc(NC(=O)N3CC4CCC(C3)O4)sc2c1", "% remaining", "=", 94.2],
  ["Cc1nc2ccc(NN=C(C#N)C#N)cc2s1 [Comparative compound 1, reference compound]", "% remaining", "=", 37.0],
  ["Cc1ccc(-c2nc3ccc(NN=C(C#N)C#N)cc3s2)cn1 [Comparative compound 6, reference compound]", "% remaining", "=", 84.7],
  ["CCn1c(N2CCOCC2)nc2cc(NN=C(C#N)C#N)ccc21", "% remaining", "=", 94.9],
  ["N#CC(C#N)=NNc1ccc2nc(N3CCOCC3)sc2c1", "% remaining", "=", 74.3],
  ["N#CC(C#N)=NNc1ccc2oc(N3CCOCC3)nc2c1", "% remaining", "=", 99.4],
  ["COC1CCN(c2nc3ccc(NN=C(C#N)C#N)cc3o2)CC1", "% remaining", "=", 16.7],
  ["CC1CN(C(=O)Nc2nc3ccc(NN=C(C#N)C#N)cc3s2)CC(C)O1 (centres unmarked)", "% remaining", "=", 83.8],
  ["N#CC(C#N)=NNc1ccc2sc(N3CCOCC3)nc2c1", "% remaining", "=", 91.2],
  ["CC1CN(c2nc3ccc(NN=C(C#N)C#N)cc3o2)CC(C)O1 (centres unmarked)", "% remaining", "=", 95.8],
  ["Cn1c(N2CCOCC2)nc2ccc(NN=C(C#N)C#N)cc21", "% remaining", "=", 77.8],
  ["CC1CN(c2nc3ccc(NN=C(C#N)C#N)cc3s2)CC(C)O1 (centres unmarked)", "% remaining", "=", 69.4],
  ["Cn1c(N2CCOCC2)nc2cc(NN=C(C#N)C#N)ccc21", "% remaining", "=", 90],
  ["N#CC(C#N)=NNc1ccc2nc(N3C4CCC3COC4)sc2c1", "% remaining", "=", 81.3],
  ["N#CC(C#N)=NNc1ccc2nc(N3C4CCC3COC4)oc2c1", "% remaining", ">", 100],
  ["N#CC(C#N)=NNc1ccc2nc(N3CCOCC3)oc2c1", "% remaining", "=", 93.5],
  ["CC1CN(c2nc3ccc(NN=C(C#N)C#N)cc3s2)CCO1 (centres unmarked)", "% remaining", "=", 62.7],
  ["N#CC(C#N)=NNc1ccc2nc(N3CC4CCC(C3)O4)oc2c1", "% remaining", "=", 96.3]
]}

* * *

Assay: Pharmacokinetic study in rats (IV and PO, plasma)
Assay type: in vivo
Settings: Sprague-Dawley, rat, SD rats, PO, 10 mg/kg

{"columns": ["COMPOUND", "UNIT_STRING", "AUC"],
 "data": [
  ["CC1COCCN1c1nc2ccc(NN=C(C#N)C#N)cc2o1 (centres unmarked)", "ng·h/mL", 23300],
  ["Cn1c(N2CCOCC2)nc2cc(NN=C(C#N)C#N)ccc21", "ng·h/mL", 3570]
]}
